RECORDED ENDPOINT: melting point

// below: answered compounds
O=C(O)COc1c(-c2ccccc2)cc(-c2ccccc2)cc1-c1ccccc1 = > 68 °C (dec.)
COc1ccc(-c2cc(C(=O)NCCCc3ccccc3)cc(-c3ccccc3F)c2OCC(=O)O)cc1 = > 89 °C (dec.)
COc1ccc2c(c1)cc(C)n2CCCCCCCCNC(=O)c1cc(-c2cccc(Cl)c2)c(OCC(=O)O)c(-c2cccc(Cl)c2)c1 = > 75 °C (dec.)

q: Give the measured melting point of O=C(O)COc1c(-c2cccc(C(F)(F)F)c2)cc(C(=O)NCCCCCCOCc2ccc(OCc3ccccc3)cc2)cc1-c1cccc(C(F)(F)F)c1 .
a: 127 to 130 °C

q: Input O=C(O)COc1c(-c2cc(Cl)cc(Cl)c2)cc(C(=O)NCCCCCCc2ccccc2)cc1-c1cc(Cl)cc(Cl)c1
a: 151 to 159 °C

* * *

RECORDED ENDPOINT: melting point

CCCCCCCCOc1cc(-c2cccc(NC(C)=O)c2)c(OCC(=O)O)c(-c2cccc(NC(C)=O)c2)c1 = > 100 °C (dec.)

q: Give the measured melting point of O=C(O)COc1c(-c2cccc(Cl)c2)cc(C(=O)N(CCc2ccccc2)Cc2ccccc2)cc1-c1cccc(Cl)c1 .
a: > 67 °C (dec.)

q: Input O=C(O)COc1c(Br)cc(C(=O)NCCCC2CCCC2)cc1-c1ccccc1F
a: > 127 °C (dec.)

* * *

- MEASURED ON: recombinant, human protein tyrosine phosphatase (PTP) 1B (hPTP1B) (Homo sapiens)
- ASSAY NAME: Inhibition of tri-phosphorylated insulin receptor dodecaphosphopeptide dephosphorylation by hPTP1B
- RECORDED CONDITIONS: 50 μM IR triphosphopeptide substrate, 5 min preincubation and 5 min reaction at 37° C., malachite green-ammonium molybdate phosphate detection
Counter-ions that a name gives are not always drawn.
RECORDED ENDPOINT: IC50 (nM)

// below: answered compounds
CCCCCCCCCCCCNC(=O)c1cc(-c2ccc(OC)cc2)c(OCC(=O)O)c(-c2ccccc2F)c1 [Example 155] = 139
CCCCCCCCCCCCNC(=O)c1cc(Br)c(OCC(=O)O)c(-c2ccccc2F)c1 [Example 156] = 278
COc1ccc(-c2cc(C(=O)NCCCCCCCCc3ccccc3)cc(-c3cccc(C(F)(F)F)c3)c2OCC(=O)O)cc1 [Example 158] = 246
CCCCCCCCCCCCNC(=O)c1cc(-c2ccc(F)c(Cl)c2)c(OCC(=O)O)c(-c2ccc(F)c(Cl)c2)c1 [Example 24, sodium salt] = 44
CCCCCCCCCCCCNC(=O)c1cc(-c2ccccc2)c(OCC(=O)O)c(-c2ccccc2)c1 [Example 8] = 195

P = O=C(O)COc1c(-c2cccc(Cl)c2)cc(C(=O)NCCCCCCCCn2ccc3ccccc32)cc1-c1cccc(Cl)c1 [Example 88]
Q = CN(CCCCCCCCc1ccccc1)C(=O)c1cc(-c2ccccc2F)c(OCC(=O)O)c(-c2ccccc2F)c1 [Example 118]
R = COc1cccc(-c2cccc(-c3cc(OC)cc(C(=O)N(C)CCCCCCCCc4ccccc4)c3)c2OCC(=O)O)c1 [Example 21]
S = COc1cc(COc2c(Br)cc(C(=O)NCCCCCCCCc3ccccc3)cc2-c2cccc(C(F)(F)F)c2)ccc1C(=O)O [Example 204]
q: Could you please sort these 4 entries by IC50 from high to low? The labels, placed in the requested order, form the answer.
a: R, Q, P, S

1 = O=C(NCCCCCCCCc1ccccc1)c1cc(-c2cccc(C(F)(F)F)c2)c(OCc2nnn[nH]2)c(-c2cccc(C(F)(F)F)c2)c1 [Example 206]
2 = O=C(O)COc1c(-c2ccccc2F)cc(C(=O)NCCCCCCCCc2ccccc2)cc1-c1ccccc1F [Example 111]
q: Of the pair 1 and 2 , name the member with the lesser recorded IC50. Refer to your chosen entry by its label in the reply.
a: 1
(1: 286 nM, 2: 700 nM)

a = O=C(NCCCCCCCCc1ccccc1)c1cc(-c2cccc(C(F)(F)F)c2)c(OCCOc2ccc(C(=O)O)c(O)c2)c(-c2cccc(C(F)(F)F)c2)c1 [Example 211]
b = O=C(NCCCCCCCCc1ccccc1)c1cc(-c2cccc(C(F)(F)F)c2)c(OCCNc2c(O)c(=O)c2=O)c(-c2cccc(C(F)(F)F)c2)c1 [Example 197]
q: Of the pair a and b , name the member with the lesser recorded IC50. Refer to your chosen entry by its label in the reply.
a: a

* * *

RECORDED ENDPOINT: melting point

q: Give the measured melting point of O=C(O)COc1c(-c2ccccc2)cc(-c2c3ccccc3cc3sc4ccccc4c23)cc1-c1ccccc1 .
a: > 136 °C (dec.)

* * *

- MEASURED ON: recombinant, human protein tyrosine phosphatase (PTP) 1B (hPTP1B) (Homo sapiens)
- Sequence (P18031 1-435): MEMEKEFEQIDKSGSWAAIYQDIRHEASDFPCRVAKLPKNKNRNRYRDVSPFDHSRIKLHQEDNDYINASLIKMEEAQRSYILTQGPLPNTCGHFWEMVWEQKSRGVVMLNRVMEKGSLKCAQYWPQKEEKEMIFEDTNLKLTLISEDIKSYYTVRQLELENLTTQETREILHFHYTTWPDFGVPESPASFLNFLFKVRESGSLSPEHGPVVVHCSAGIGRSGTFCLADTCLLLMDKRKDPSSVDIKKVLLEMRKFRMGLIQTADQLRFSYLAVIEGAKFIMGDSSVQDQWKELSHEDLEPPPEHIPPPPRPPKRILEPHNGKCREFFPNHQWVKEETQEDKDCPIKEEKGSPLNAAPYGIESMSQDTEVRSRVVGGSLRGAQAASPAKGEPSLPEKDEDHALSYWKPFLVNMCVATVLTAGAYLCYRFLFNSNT
- ASSAY NAME: Inhibition of tri-phosphorylated insulin receptor dodecaphosphopeptide dephosphorylation by hPTP1B
- RECORDED CONDITIONS: 50 μM IR triphosphopeptide substrate, 5 min preincubation and 5 min reaction at 37° C., malachite green-ammonium molybdate phosphate detection
RECORDED ENDPOINT: IC50 (nM)

CCCCCCCCCCCCNC(=O)c1cc(Br)c(OCC(=O)O)c(-c2ccc(F)c(Cl)c2)c1 = 130

P = CCCCCCCCCCCCNC(=O)c1cc(-c2cccc(Cl)c2)c(OCC(=O)O)c(-c2cccc(C(F)(F)F)c2)c1
Q = O=C(O)c1ccc(COc2c(-c3cccc(C(F)(F)F)c3)cc(C(=O)NCCCCCCCc3ccccc3)cc2-c2cccc(C(F)(F)F)c2)cc1
R = CCCCCCc1cc(-c2ccccc2)c(OCC(=O)O)c(-c2ccccc2)c1
q: Ordering: ascending IC50. The labels, placed in the requested order, form the answer.
a: Q, P, R

* * *

- MEASURED ON: recombinant, human protein tyrosine phosphatase (PTP) 1B (hPTP1B) (Homo sapiens, UniProt P18031)
- Sequence (P18031 1-435): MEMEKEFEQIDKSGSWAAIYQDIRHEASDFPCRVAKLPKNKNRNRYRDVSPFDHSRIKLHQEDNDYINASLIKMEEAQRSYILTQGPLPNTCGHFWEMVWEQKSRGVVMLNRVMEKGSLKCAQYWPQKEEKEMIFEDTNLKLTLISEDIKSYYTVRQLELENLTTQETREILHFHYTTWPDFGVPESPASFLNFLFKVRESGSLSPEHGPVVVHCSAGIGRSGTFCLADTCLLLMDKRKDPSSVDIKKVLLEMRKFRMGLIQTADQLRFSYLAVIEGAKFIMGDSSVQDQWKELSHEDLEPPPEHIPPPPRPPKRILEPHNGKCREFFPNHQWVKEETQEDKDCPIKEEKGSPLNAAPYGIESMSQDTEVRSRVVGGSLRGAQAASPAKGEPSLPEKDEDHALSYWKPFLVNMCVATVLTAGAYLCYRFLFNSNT
- ASSAY NAME: Inhibition of tri-phosphorylated insulin receptor dodecaphosphopeptide dephosphorylation by hPTP1B
- RECORDED CONDITIONS: 50 μM IR triphosphopeptide substrate, 5 min preincubation and 5 min reaction at 37° C., malachite green-ammonium molybdate phosphate detection
RECORDED ENDPOINT: IC50 (nM)

// below: answered molecules
CCCCCCCCOc1cc(-c2cccc([N+](=O)[O-])c2)c(OCC(=O)O)c(-c2cccc([N+](=O)[O-])c2)c1 [Example 49] = 400
O=C(O)COc1c(-c2cccc(C(F)(F)F)c2)cc(C(=O)NCCCCCCOCc2ccc(OCc3ccccc3)cc2)cc1-c1cccc(C(F)(F)F)c1 [Example 14] = 366
O=C(O)COc1c(-c2cccc(Cl)c2)cc(C(=O)NCCCCCCO)cc1-c1cccc(Cl)c1 [Example 167] = 231

A = O=C(O)COc1c(-c2cccc(C(F)(F)F)c2)cc(C(=O)NCCCCCCCCc2ccccc2)cc1-c1cccc(C(F)(F)F)c1 [Example 177]
B = CCCCCCCCCCCCNC(=O)c1cc(Br)c(OS(=O)(=O)c2ccc(C(=O)O)c(O)c2)c(-c2cccc(C(F)(F)F)c2)c1 [Example 179]
C = Cc1cc(C)cc(-c2cc(C(=O)NCCCCCCCCc3ccccc3)cc(-c3cc(C)cc(C)c3)c2OCC(=O)O)c1 [Example 141]
q: Could you please sort these 3 entries by IC50 from high to low? The labels, placed in the requested order, form the answer.
a: A, C, B
